Examples of molecules with documented melting point follow.
Structures can show the parent of a compound that is named as a salt.

# molecule, endpoint-unit, melting point
records = [
    ("CSc1cccc(C(NC2CCN(C)CC2)c2nc3ccccc3[nH]2)c1 (centres unmarked)", "°C", 166),
    ("CCCNC(=O)c1cccc(C(OC2CCN(C)CC2)c2nc3ccccc3s2)c1 (centres unmarked)", "°C", 60),
    ("CN1CCC(OC(c2cccc(N3CCC(N(C)C)C3)c2)c2nc3ccccc3s2)CC1 (centres unmarked) (as salt: oxalate)", "°C", 106),
    ("CN1CCC(COC(c2cccc(C#CCCCN)c2)c2nc3cc(F)ccc3[nH]2)C1 (centres unmarked) (as salt: oxalate)", "°C", 200),
    ("CN1CCC(NC(c2ccccc2)c2nc3ccccc3[nH]2)CC1 (centres unmarked)", "°C", 133),
    ("CN1CCC(OC(c2nc3ccccc3s2)c2c(F)cc(Cl)cc2F)CC1 (centres unmarked) (as salt: oxalate)", "°C", 158),
    ("CN1CCC(OC(c2cccc(OCCCCCN3CCN(C(=O)OC(C)(C)C)CC3)c2)c2nc3ccccc3s2)CC1 (centres unmarked)", "°C", 131),
    ("CSCCOc1cccc(C(OC2CCN(C)CC2)c2nc3ccccc3s2)c1 (centres unmarked) (as salt: oxalate)", "°C", 89),
]

Cited source: patent US8802664B2
